tested on: M19-MEL melanoma; test: NCI tumour cell line growth inhibition, 48 h
As shown below, each of these compounds has a reported TGI value.

Record excerpt, results attached:
CCOC(=O)C(Cc1cn(S(=O)(=O)c2ccccc2)c2ccccc12)(NC(C)=O)C(=O)OCC | > 100 µM
Cc1nc2ccccc2c(=O)n1-c1ccccc1F | > 100 µM
OC/C=C(\I)CCCOCOCc1ccccc1 | > 100 µM
O=C(/C=C/c1c(O)ccc2ccccc12)c1ccccc1 | > 100 µM
CCN(CC)CC(=O)O[C@]1(CC)C(=O)OCc2c1cc1n(c2=O)Cc2cc3ccccc3nc2-1 | 0.738 µM

Look up and state reported TGI for CCO/N=C(/N)c1ncn(Cc2ccccc2)c1NCC(OCC)OCC
> 100 µM

Report TGI for COc1ccc2c3c(coc13)C(CCC(=O)O)CC2 (stereo unspecified)
> 100 µM

Consider the compound COC(=O)C(=Cc1cc(OC)c(OC)c(OC)c1-c1cc2c(cc1C(C)=O)OCO2)C(=O)OC and give its recorded TGI.
75 µM

Specify measured TGI for C=CCc1cc(-c2cc(CC=C)c(O)c(CNCCCl)c2)cc(CNCCCl)c1O .
32.3 µM

Retrieve TGI measured for O=c1[nH]c(=O)n(C2OC(CO)C(O)C(O)C2O)cc1F (stereo unspecified) and print it.
> 100 µM

Report TGI, nothing else, for this compound: O=C1NC2OCC(O)C(O)C2O1 (stereo unspecified)
> 100 µM

Please give the documented TGI of COC(=O)c1cc(C)c(C)c2c1NC(=O)CNC2=O
> 100 µM

Kindly indicate its recorded TGI. Item: CC(C)c1ccc(C(c2ccc(OCC(=O)O)cc2)c2ccc(C(C)C)cc(=O)c2O)c(O)c(=O)c1
69.9 µM

Data provenance: PubChem BioAssay (NCI)
